TEST_DETAILS: Pharmacokinetics following single oral administration to mice
Type: in vivo
ASSAY_SETUP: mouse, CD-1 (ICR) mice, gavage 10 mg/kg, 0.5% methylcellulose/water suspension, plasma
OBSERVABLE: AUC(0-inf) (ng·h/mL)

I. C[C@@H]1COCCN1c1cc(-c2ccnn2C)c2c(Cl)nc(-c3ccn[nH]3)n2n1
II. C[C@@H]1COCCN1c1cc(-c2ccnn2C)c2c(Br)nc(-c3ccn[nH]3)n2n1
III. CCc1nc(-c2ccn[nH]2)n2nc(N3CCOC[C@H]3C)cc(-c3ccnn3C)c12
IV. Cc1nc(-c2ccn[nH]2)n2nc(N3CCOC[C@H]3C)cc(-c3ccnn3C)c12
V. C=Cc1nc(-c2ccn[nH]2)n2nc(N3CCOC[C@H]3C)cc(-c3ccnn3C)c12
Task item: Kindly order the items shown according to AUC(0-inf), from the highest value down. Use the labels to give the ranking in the order requested.
Reply: III, IV, II, I, V

The reported measurements were obtained from patent US20240059695A1.
